# experiment: AUC (0 to infinity) in Sprague-Dawley rat at 0.9 mg/kg, iv
# Assay type: ADME, organism-based
# Parameters: dose 0.9 mg/kg, route intravenous, time infinity
# condition_parameters: in vivo
quantity_name: AUC(0-inf) (ng·h/mL)

>>> numeric_readout("CCOc1ccc(Cc2cc([C@@H]3O[C@H](/C=N/NC(=O)c4ccccc4)[C@@H](O)[C@H](O)[C@H]3O)ccc2Cl)cc1")
206

* * *

Reported Cmax is given for each of the following compounds.
# experiment: Cmax in Sprague-Dawley rat at 1.1 mg/kg, po
# Type: ADME, organism-based
# Parameters: dose 1.1 mg/kg, route oral
# condition_parameters: in vivo
quantity_name: Cmax (ng/mL)

>>> numeric_readout("CCOc1ccc(Cc2cc([C@@H]3O[C@H](/C=N/NCCO)[C@@H](O)[C@H](O)[C@H]3O)ccc2Cl)cc1")
34.5
>>> numeric_readout("CCOc1ccc(Cc2cc([C@@H]3O[C@H](/C=N/O)[C@@H](O)[C@H](O)[C@H]3O)ccc2Cl)cc1")
239

* * *

# experiment: AUC (0 to infinity) in Sprague-Dawley rat at 1.1 mg/kg, iv
# Format: ADME, organism-based
# Set-up: dose 1.1 mg/kg, route intravenous, time infinity
# condition_parameters: in vivo
quantity_name: AUC(0-inf) (ng·h/mL)

>>> numeric_readout("CCOc1ccc(Cc2cc([C@@H]3O[C@H](/C=N/NCCO)[C@@H](O)[C@H](O)[C@H]3O)ccc2Cl)cc1")
1030

* * *

Reported half-life is given for each of the following molecules.
# experiment: Elimination half life in Sprague-Dawley rat at 1.1 mg/kg, po
# Format: ADME, organism-based
# condition_parameters: in vivo, read-out: beta t1/2 (converted)
quantity_name: half-life (h)

>>> numeric_readout("CCOc1ccc(Cc2cc([C@@H]3O[C@H](/C=N/NCCO)[C@@H](O)[C@H](O)[C@H]3O)ccc2Cl)cc1")
1.2
>>> numeric_readout("CCOc1ccc(Cc2cc([C@@H]3O[C@H](/C=N/O)[C@@H](O)[C@H](O)[C@H]3O)ccc2Cl)cc1")
9

* * *

Reported AUC(0-inf) is given for each of the following compounds.
# experiment: AUC (0 to infinity) in Sprague-Dawley rat at 1 mg/kg, po
# Format: ADME, organism-based
# Set-up: dose 1 mg/kg, time infinity, route oral
# condition_parameters: in vivo
quantity_name: AUC(0-inf) (ng·h/mL)

>>> numeric_readout("CCOc1ccc(Cc2cc([C@@H]3O[C@H](/C=N/OC)[C@@H](O)[C@H](O)[C@H]3O)ccc2Cl)cc1")
540
>>> numeric_readout("CCOc1ccc(Cc2cc([C@@H]3O[C@H](CNOC)[C@@H](O)[C@H](O)[C@H]3O)ccc2Cl)cc1")
352

* * *

Reported AUC(0-inf) is given for each of the following molecules.
# experiment: AUC (0 to infinity) in Sprague-Dawley rat at 1.1 mg/kg, po
# Assay type: ADME, organism-based
# Parameters: dose 1.1 mg/kg, time infinity, route oral
# condition_parameters: in vivo
quantity_name: AUC(0-inf)

>>> result("CCOc1ccc(Cc2cc([C@@H]3O[C@H](/C=N/NCCO)[C@@H](O)[C@H](O)[C@H]3O)ccc2Cl)cc1")
"73 ng·h/mL"
>>> result("CCOc1ccc(Cc2cc([C@@H]3O[C@H](/C=N/O)[C@@H](O)[C@H](O)[C@H]3O)ccc2Cl)cc1")
"2270 ng·h/mL"

* * *

# experiment: Cmax in Sprague-Dawley rat at 1 mg/kg, po
# Format: ADME, organism-based
# Parameters: dose 1 mg/kg, route oral
# condition_parameters: in vivo
quantity_name: Cmax (ng/mL)

>>> numeric_readout("CCOc1ccc(Cc2cc([C@@H]3O[C@H](CNOC)[C@@H](O)[C@H](O)[C@H]3O)ccc2Cl)cc1")
67.2
>>> numeric_readout("CCOc1ccc(Cc2cc([C@@H]3O[C@H](/C=N/OC)[C@@H](O)[C@H](O)[C@H]3O)ccc2Cl)cc1")
116

* * *

Reported AUC(0-inf) is given for each of the following molecules.
# experiment: AUC (0 to infinity) in Sprague-Dawley rat at 1 mg/kg, iv
# Format: ADME, organism-based
# Set-up: dose 1 mg/kg, time infinity, route intravenous
# condition_parameters: in vivo
quantity_name: AUC(0-inf)

>>> result("CCOc1ccc(Cc2cc([C@@H]3O[C@H](/C=N/O)[C@@H](O)[C@H](O)[C@H]3O)ccc2Cl)cc1")
"3.27 µg·h/mL"
>>> result("CCOc1ccc(Cc2cc([C@@H]3O[C@H](/C=N/OC)[C@@H](O)[C@H](O)[C@H]3O)ccc2Cl)cc1")
"1.32 µg·h/mL"
>>> result("CCOc1ccc(Cc2cc([C@@H]3O[C@H](CNOC)[C@@H](O)[C@H](O)[C@H]3O)ccc2Cl)cc1")
"1.07 µg·h/mL"

* * *

# experiment: Tmax in Sprague-Dawley rat at 1.1 mg/kg, po
# Format: ADME, organism-based
# condition_parameters: in vivo
quantity_name: Tmax (min)

>>> numeric_readout("CCOc1ccc(Cc2cc([C@@H]3O[C@H](/C=N/O)[C@@H](O)[C@H](O)[C@H]3O)ccc2Cl)cc1")
60
>>> numeric_readout("CCOc1ccc(Cc2cc([C@@H]3O[C@H](/C=N/NCCO)[C@@H](O)[C@H](O)[C@H]3O)ccc2Cl)cc1")
42

* * *

# experiment: Clearance in Sprague-Dawley rat at 0.9 mg/kg, iv
# Assay type: ADME, organism-based
# condition_parameters: in vivo
quantity_name: clearance

>>> result("CCOc1ccc(Cc2cc([C@@H]3O[C@H](/C=N/NC(=O)c4ccccc4)[C@@H](O)[C@H](O)[C@H]3O)ccc2Cl)cc1")
"75.7 mL/min/kg"

* * *

# test_target: Sodium/glucose cotransporter 2 (Homo sapiens, UniProt P31639)
# experiment: Inhibition of human SGLT2 expressed in CHO cells assessed as reduction in [14C]AMG uptake after 1 hr by microbeta counting method
pEC50: −log10 of the molar value.
Label true (1) for high-side pEC50 (at or above 7) and false (0) for low-side pEC50 (below it).

>>> group("CCOc1ccc(Cc2cc([C@@H]3O[C@H](/C=N/NC4=NCCN4)[C@@H](O)[C@H](O)[C@H]3O)ccc2Cl)cc1")
"false (0)"
>>> group("CCOc1ccc(Cc2cc([C@@H]3O[C@H](/C=N/OCC4CC4)[C@@H](O)[C@H](O)[C@H]3O)ccc2Cl)cc1")
"false (0)"
>>> group("CCOc1ccc(Cc2cc([C@@H]3O[C@H](/C=N/Nc4ccccc4[N+](=O)[O-])[C@@H](O)[C@H](O)[C@H]3O)ccc2Cl)cc1")
"false (0)"
>>> group("CCC#CCO/N=C/[C@H]1O[C@@H](c2ccc(Cl)c(Cc3ccc(OCC)cc3)c2)[C@H](O)[C@@H](O)[C@@H]1O")
"false (0)"
>>> group("CCOc1ccc(Cc2cc([C@@H]3O[C@H](/C=N/NC(=O)c4ccncc4)[C@@H](O)[C@H](O)[C@H]3O)ccc2Cl)cc1")
"false (0)"
>>> group("CCOc1ccc(Cc2cc([C@@H]3O[C@H](/C=N/OCCC(C)(C)C)[C@@H](O)[C@H](O)[C@H]3O)ccc2Cl)cc1")
"false (0)"
>>> group("CCOc1ccc(Cc2cc([C@@H]3O[C@H](/C=N/O)[C@@H](O)[C@H](O)[C@H]3O)ccc2Cl)cc1")
"true (1)"
>>> group("CCOc1ccc(Cc2cc([C@@H]3O[C@H](/C=N/Nc4ccc([N+](=O)[O-])cc4)[C@@H](O)[C@H](O)[C@H]3O)ccc2Cl)cc1")
"false (0)"
>>> group("CCOc1ccc(Cc2cc([C@@H]3O[C@H](/C=N/NCc4ccccc4)[C@@H](O)[C@H](O)[C@H]3O)ccc2Cl)cc1")
"true (1)"

* * *

Reported pEC50 is given for each of the following compounds.
# test_target: Sodium/glucose cotransporter 2 (Homo sapiens)
# Sequence (P31639 whole entry): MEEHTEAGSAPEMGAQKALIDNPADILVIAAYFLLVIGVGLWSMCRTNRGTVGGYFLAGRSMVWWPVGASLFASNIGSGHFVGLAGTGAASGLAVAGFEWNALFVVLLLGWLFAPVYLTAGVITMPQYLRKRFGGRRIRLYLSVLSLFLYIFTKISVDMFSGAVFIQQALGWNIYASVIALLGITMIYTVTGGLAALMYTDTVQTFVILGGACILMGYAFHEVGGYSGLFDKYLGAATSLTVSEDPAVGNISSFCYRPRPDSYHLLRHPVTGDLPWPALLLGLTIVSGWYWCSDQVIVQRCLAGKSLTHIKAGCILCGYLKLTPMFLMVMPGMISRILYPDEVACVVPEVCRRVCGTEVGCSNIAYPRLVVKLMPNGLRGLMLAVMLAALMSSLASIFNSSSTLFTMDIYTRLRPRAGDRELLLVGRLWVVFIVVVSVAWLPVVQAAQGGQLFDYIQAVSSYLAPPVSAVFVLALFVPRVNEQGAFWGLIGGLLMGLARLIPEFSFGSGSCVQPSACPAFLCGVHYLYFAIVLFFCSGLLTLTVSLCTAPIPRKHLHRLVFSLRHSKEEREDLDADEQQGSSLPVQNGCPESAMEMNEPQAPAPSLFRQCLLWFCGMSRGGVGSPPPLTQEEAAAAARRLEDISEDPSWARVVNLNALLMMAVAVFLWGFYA
# experiment: Inhibition of human SGLT2 expressed in CHO cells assessed as reduction in [14C]AMG uptake after 1 hr by microbeta counting method
pEC50: −log10 of the molar value.
quantity_name: pEC50

>>> numeric_readout("CCOc1ccc(Cc2cc([C@@H]3O[C@H](/C=N/OC)[C@@H](O)[C@H](O)[C@H]3O)ccc2Cl)cc1")
7.04
>>> numeric_readout("CCOc1ccc(Cc2cc([C@@H]3O[C@H](/C=N/NC(=O)c4ccc(Cl)cc4)[C@@H](O)[C@H](O)[C@H]3O)ccc2Cl)cc1")
7.19
>>> numeric_readout("CCOc1ccc(Cc2cc([C@@H]3O[C@H](CNNC(=O)c4ccco4)[C@@H](O)[C@H](O)[C@H]3O)ccc2Cl)cc1")
6.82
>>> numeric_readout("CCOc1ccc(Cc2cc([C@@H]3O[C@H](/C=N/NC(=O)c4ccccc4)[C@@H](O)[C@H](O)[C@H]3O)ccc2Cl)cc1")
6.89
